Assay: melting temperature; fluorescence melt of hairpins on a sequencing array, two-state fit, raised by 9.35 °C to match UV melts
Details: sodium 0.088 M
Measured Tm, listed per entry.

>  <entry sequence>
GCTTATCGAAAGATAGC (((.(((....))))))

>  <Tm>
43.4 °C

$$$$
>  <entry sequence>
GTGGTCCGAAAGGATCAC (((.(((....))).)))

>  <Tm>
60.4 °C

$$$$
>  <entry sequence>
GCCTAACGAAAGTTGGC (((.(((....))))))

>  <Tm>
53.7 °C

$$$$
>  <entry sequence>
GGAACAGCGAAAGCTTCC (((..(((....))))))

>  <Tm>
35.5 °C

$$$$
>  <entry sequence>
GCGGCTTACCGC ((((....))))

>  <Tm>
61.2 °C

$$$$
>  <entry sequence>
GCAGGGCGAAAGCTCCGC ((.(.((....)).).))

>  <Tm>
49.5 °C

$$$$
>  <entry sequence>
GAGTGGCGAAAGCCTCTC (((.(((....))).)))

>  <Tm>
53.6 °C

$$$$
>  <entry sequence>
GATCATTAGCATGATC ((((((....))))))

>  <Tm>
44.2 °C

$$$$
>  <entry sequence>
GACCGAGGAAACTCGGCC (.(((((....))))).)

>  <Tm>
46.6 °C

$$$$
>  <entry sequence>
GATCGCTAGGCGATC ((((((...))))))

>  <Tm>
68.4 °C

$$$$
>  <entry sequence>
GCGATAGGAAACTATCAC (.(((((....))))).)

>  <Tm>
35.9 °C

$$$$
>  <entry sequence>
GATCCCGGACGGGATC ((((((....))))))

>  <Tm>
68.5 °C

$$$$
>  <entry sequence>
GATGGCGGAAACGCTGTC ((..(((....)))..))

>  <Tm>
44 °C

$$$$
>  <entry sequence>
GGTGGACGAAAGTCGACC (((.(((....))).)))

>  <Tm>
57.2 °C

$$$$
>  <entry sequence>
GCCTACGAAAGTAAGGGC ((((((....)))..)))

>  <Tm>
46.8 °C

$$$$
>  <entry sequence>
GATCACACGGTGATC ((((((...))))))

>  <Tm>
60.5 °C

$$$$
>  <entry sequence>
GGCCCACGAAAGTGTGCC (((.(((....))).)))

>  <Tm>
58.1 °C

$$$$
>  <entry sequence>
GTGCGTGGAAACACACAC (((.(((....))).)))

>  <Tm>
48.6 °C

$$$$
>  <entry sequence>
GCATCAGGAAACTGACGC ((.((((....)))).))

>  <Tm>
44.5 °C

$$$$
>  <entry sequence>
GTAGAGGGAAACCTCTAC (((((((....)))))))

>  <Tm>
55.8 °C

$$$$
>  <entry sequence>
GATCCCTAGGGGATC ((((((...))))))

>  <Tm>
61.1 °C

$$$$
>  <entry sequence>
GGGACCGAAAGGTAACCC ((((((....)))..)))

>  <Tm>
46.1 °C

$$$$
>  <entry sequence>
GATCTGGGAAACTAGATC (((((.(....).)))))

>  <Tm>
42.4 °C

$$$$
>  <entry sequence>
GGTAGGCGAAAGCCAACC (((.(((....))).)))

>  <Tm>
57.6 °C

$$$$
>  <entry sequence>
GATCGGGGCACCGATC ((((((....))))))

>  <Tm>
65.9 °C

$$$$
>  <entry sequence>
GAGTTCGGAAACGGACTC ((((.((....)).))))

>  <Tm>
52 °C

$$$$
>  <entry sequence>
GATTGCGAAAGCAAGATC ((((((....)))..)))

>  <Tm>
50.2 °C

$$$$
>  <entry sequence>
GCGCCACGAAAGTGCCGC (((.(((....))).)))

>  <Tm>
56.3 °C

$$$$
>  <entry sequence>
GAAGCCCGAAAGGGTTTC (((.(((....))).)))

>  <Tm>
56.2 °C

$$$$
>  <entry sequence>
GGTTTAGAAATAAACC ((((((....))))))

>  <Tm>
45.3 °C

$$$$
>  <entry sequence>
CTGCGGAAACGCAG (((((....)))))

>  <Tm>
61.8 °C

$$$$
>  <entry sequence>
GTGCCAACGAAAGTTCAC (((..(((....))))))

>  <Tm>
36.3 °C

$$$$
>  <entry sequence>
GTGAGCGAAAGCTCGCAC ((((((....)))..)))

>  <Tm>
55.1 °C

$$$$
>  <entry sequence>
GTCGCCGAAAGGCATGAC ((((((....)))..)))

>  <Tm>
40.7 °C

$$$$
>  <entry sequence>
GCCCTGCGAAAGCCGCGC ((.(.((....)).).))

>  <Tm>
34.9 °C

$$$$
>  <entry sequence>
GACTTCGGAAACGAAATC ((.((((....)))).))

>  <Tm>
31.9 °C

$$$$
>  <entry sequence>
GCAACGCGAAAGCCGTGC (((..((....))..)))

>  <Tm>
49 °C

$$$$
>  <entry sequence>
GCTAGCCGAAAGGCCAGC (((.(((....))).)))

>  <Tm>
54.3 °C

$$$$
>  <entry sequence>
GCTGTCGAAAGACAGAGC ((((((....)))..)))

>  <Tm>
54.8 °C

$$$$
>  <entry sequence>
GCTGGAGAAATCCAGC ((((((....))))))

>  <Tm>
62.9 °C

$$$$
>  <entry sequence>
GCACGGGGAAACCTGTGC ((((.((....)).))))

>  <Tm>
58.6 °C

$$$$

---

Assay: melting temperature; fluorescence melt of hairpins on a sequencing array, two-state fit, raised by 9.35 °C to match UV melts
Conditions: sodium 0.088 M
Tm overview
measurement kind: Tm (°C)

>  <entry sequence>
GTAGTGCGAAAGCATTAC (((.(((....))).)))

>  <measurement kind>
Tm

>  <units of measure>
°C

>  <reported measurement>
51

$$$$
>  <entry sequence>
GGATGGCGAAAGCCCTCC (((.(((....))).)))

>  <measurement kind>
Tm

>  <units of measure>
°C

>  <reported measurement>
49.2

$$$$
>  <entry sequence>
GTGCGCCCGAAAGGGCAC (((..(((....))))))

>  <measurement kind>
Tm

>  <units of measure>
°C

>  <reported measurement>
64.3

$$$$
>  <entry sequence>
GGCGTTGGAAACAGTGCC (((..((....))..)))

>  <measurement kind>
Tm

>  <units of measure>
°C

>  <reported measurement>
42.6

$$$$
>  <entry sequence>
GGTTGCTCGAAAGAGACC (((..(((....))))))

>  <measurement kind>
Tm

>  <units of measure>
°C

>  <reported measurement>
29.6

$$$$

---

Test: melting temperature; fluorescence melt of hairpins on a sequencing array, two-state fit, raised by 9.35 °C to match UV melts
Details: sodium 0.088 M
The reader will find reported Tm values listed item by item below.
measurement kind: Tm (°C)

>  <entry sequence>
GGATCCGAAAGGACTCC ((((((....))).)))

>  <units of measure>
°C

>  <reported measurement>
47.4

$$$$
>  <entry sequence>
GAGAACGGAAACGTTTTC ((.((((....)))).))

>  <units of measure>
°C

>  <reported measurement>
41.3

$$$$
>  <entry sequence>
GCGGTCTCCGC ((((...))))

>  <units of measure>
°C

>  <reported measurement>
56.3

$$$$
>  <entry sequence>
GGCTCTGCGAAAGCAGCC (((..(((....))))))

>  <units of measure>
°C

>  <reported measurement>
40.6

$$$$
>  <entry sequence>
AAGACGAAAGTCTT (((((....)))))

>  <units of measure>
°C

>  <reported measurement>
52.7

$$$$
>  <entry sequence>
GCGTATGGAAACATGTGC ((..(((....)))..))

>  <units of measure>
°C

>  <reported measurement>
38.8

$$$$
>  <entry sequence>
GTTTCGGAAACGAAAC ((((((....))))))

>  <units of measure>
°C

>  <reported measurement>
56.9

$$$$
>  <entry sequence>
GAGCTAGAAATAGCTC ((((((....))))))

>  <units of measure>
°C

>  <reported measurement>
53.4

$$$$
>  <entry sequence>
GGATGAGGAAACTCGTTC (.(.(((....))).).)

>  <units of measure>
°C

>  <reported measurement>
28.3

$$$$
>  <entry sequence>
GGGCCGGGAAACCAGCCC ((((.((....)).))))

>  <units of measure>
°C

>  <reported measurement>
54.3

$$$$
>  <entry sequence>
GAAGACCGAAAGGTATTC (((.(((....))).)))

>  <units of measure>
°C

>  <reported measurement>
50.8

$$$$
>  <entry sequence>
GCGTCAGAACGC ((((....))))

>  <units of measure>
°C

>  <reported measurement>
52

$$$$
>  <entry sequence>
GCCCGCGAAAGCGCCGGC ((((((....)))..)))

>  <units of measure>
°C

>  <reported measurement>
52.3

$$$$
>  <entry sequence>
GCCTCAGGAAACTGAAGC ((.((((....)))).))

>  <units of measure>
°C

>  <reported measurement>
36.3

$$$$
>  <entry sequence>
GCGAGATATCGC ((((....))))

>  <units of measure>
°C

>  <reported measurement>
56.9

$$$$
>  <entry sequence>
GTTAGTCGAAAGACCAAC (((.(((....))).)))

>  <units of measure>
°C

>  <reported measurement>
37

$$$$
>  <entry sequence>
GATGCGGGAAACTGCATC (((((.(....).)))))

>  <units of measure>
°C

>  <reported measurement>
54.7

$$$$
>  <entry sequence>
GTTGGCGAAAGCCAGAAC ((((((....)))..)))

>  <units of measure>
°C

>  <reported measurement>
35.1

$$$$
>  <entry sequence>
GCAGTGCGAAAGCCCCGC ((.(.((....)).).))

>  <units of measure>
°C

>  <reported measurement>
41.1

$$$$
>  <entry sequence>
GAAGGAGGAAACTCCCTC ((.((((....)))).))

>  <units of measure>
°C

>  <reported measurement>
28.4

$$$$
>  <entry sequence>
GGTTGGGAAACCAACC ((((((....))))))

>  <units of measure>
°C

>  <reported measurement>
60.4

$$$$
>  <entry sequence>
GAAAGGGGAAACCCTCTC ((.((((....)))).))

>  <units of measure>
°C

>  <reported measurement>
26.8

$$$$
>  <entry sequence>
GGCCGCCGAAAGGCAGCC (((.(((....))).)))

>  <units of measure>
°C

>  <reported measurement>
67.4

$$$$
>  <entry sequence>
AGGTAGAAATACCT (((((....)))))

>  <units of measure>
°C

>  <reported measurement>
33.5

$$$$
>  <entry sequence>
GTTGATGGAAACGTCAAC (((((.(....).)))))

>  <units of measure>
°C

>  <reported measurement>
47.1

$$$$
>  <entry sequence>
GAAAGGGCGAAAGCCTTC (((..(((....))))))

>  <units of measure>
°C

>  <reported measurement>
24.8

$$$$
>  <entry sequence>
GATCAATGTTTTGATC ((((((....))))))

>  <units of measure>
°C

>  <reported measurement>
47

$$$$
>  <entry sequence>
GGAGTGGGAAACCACTCC (((((((....)))))))

>  <units of measure>
°C

>  <reported measurement>
68.2

$$$$
>  <entry sequence>
GCTGTCGGAAACGACAAC (.(((((....))))).)

>  <units of measure>
°C

>  <reported measurement>
40.9

$$$$
>  <entry sequence>
GGTTTACGAAAGTAACC (((.(((....))))))

>  <units of measure>
°C

>  <reported measurement>
44.2

$$$$
>  <entry sequence>
GCCTTCGGAAACGAGGGC (((.(((....))).)))

>  <units of measure>
°C

>  <reported measurement>
56.7

$$$$
>  <entry sequence>
GATCGTCCGACGATC ((((((...))))))

>  <units of measure>
°C

>  <reported measurement>
53.9

$$$$
>  <entry sequence>
GCCATACGAAAGTAGGC (((.(((....))))))

>  <units of measure>
°C

>  <reported measurement>
52.6

$$$$
>  <entry sequence>
GATCTTATGTAAGATC ((((((....))))))

>  <units of measure>
°C

>  <reported measurement>
45.2

$$$$
>  <entry sequence>
GTTTTTCGAAAGAATAAC (((.(((....))).)))

>  <units of measure>
°C

>  <reported measurement>
34.7

$$$$
>  <entry sequence>
GTGGCTTCGAAAGAACAC (((..(((....))))))

>  <units of measure>
°C

>  <reported measurement>
29.7

$$$$
>  <entry sequence>
GTATCTCCGAAAGGATAC (((..(((....))))))

>  <units of measure>
°C

>  <reported measurement>
30.7

$$$$
>  <entry sequence>
GGGCAGGGAAACCTGCTC (.(((((....))))).)

>  <units of measure>
°C

>  <reported measurement>
59.6

$$$$
